# Tested on: SF-295 CNS
# assay comment: NCI-60 one-dose screen, 48 h
# condition set: 10 µM unless noted
The panel holds about 83,000 compounds, 20% with a hit somewhere; the sample as a whole holds those more often. Calls of active or inactive are those of the source. The calls were made as follows: active = growth percent below 10; inactive = the rest.
Classes used: active, inactive

{"compound structure string": "COC(=O)c1c(C)[nH]c(/C=C2\\N=C(c3ccc[nH]3)C=C2OC)c1C", "assayed target": "SF-295 CNS", "answer label": "active"}
{"compound structure string": "CC(=O)Nc1ccc2nc3ccc(NC(C)=O)cc3[n+](-c3ccccc3)c2c1", "assayed target": "SF-295 CNS", "answer label": "inactive"}
{"compound structure string": "C=C(C)[C@@H]1CC[C@]2(COCCCN)CC[C@]3(C)[C@H](CC[C@@H]4[C@@](C)(CCCNCCCN)[C@H](C(=C)C)CC[C@]43C)[C@@H]12", "assayed target": "SF-295 CNS", "answer label": "active"}
{"compound structure string": "O=C(Nc1cc(-c2cccnc2)nc(NCCCN2CCOCC2)n1)c1cc(Br)cc(C(F)(F)F)c1", "assayed target": "SF-295 CNS", "answer label": "active"}

* * *

Below: a set of entries, each annotated with reported growth.
# Test system: OVCAR-4 ovarian
# assay comment: NCI-60 one-dose screen, 48 h (100 = growth as untreated, 0 = no growth, -100 = all killed)
# condition set: 10 µM
The panel holds about 83,000 compounds, 20% with a hit somewhere; the sample as a whole holds those more often.

{"compound": "O=C(N/N=C/c1c(Cl)cccc1Cl)c1cccc(Nc2ccnc(C(F)(F)F)c2)c1", "scale unit": "%", "growth": 69.3}
{"compound": "C#CCOc1ccc(C2=NN(CC3CC3)C3N=C(Cl)c4ncn(CC5CC5)c4N23)cc1OCC#C (stereo not given)", "scale unit": "%", "growth": 71.3}
{"compound": "C=CCCCCOc1ccccc1-c1cnc(OCCCCC=C)n1C", "scale unit": "%", "growth": 97.9}
{"compound": "COc1ccc(NCc2cn(-c3ccc(C(=O)O)cc3)nc2-c2ccc(C(=O)O)cc2)cc1C(F)(F)F", "scale unit": "%", "growth": 93.3}
{"compound": "CCc1ccc(-c2ccc(COc3ccc(CC4SC(=O)NC4=O)cc3)cc2)cc1 (stereo not given)", "scale unit": "%", "growth": 58.6}

* * *

# Tested on: MALME-3M melanoma
# assay comment: NCI-60 one-dose screen, 48 h
# condition set: 10 µM unless noted
About 83,000 compounds went through this panel and 20% of them were active in at least one assay; those are over-represented in the sample as a whole. Activity calls are given as the source filed them. The calls were made as follows: active = growth percent below 10; inactive = the rest.
Outcomes: active, inactive

{"compound structure string": "Cc1cc[n+](CCCCCCCCCC[n+]2ccc(C)cc2)cc1", "answer label": "inactive"}
{"compound structure string": "COc1ccc2nc3ccccc3c(NCCNCCO)c2c1", "answer label": "active"}
{"compound structure string": "C=C(C)[C@@H]1CC[C@]2(C(N)=O)CC[C@]3(C)[C@H](CC[C@@H]4[C@@]5(C)C/C(=C/c6cccnc6)[C@H](O)C(C)(C)[C@@H]5CC[C@]43C)[C@@H]12", "answer label": "active"}
{"compound structure string": "COc1ncc(-c2ccc3nccc(C#CCCCCC(=O)O)c3c2)cc1NS(=O)(=O)c1ccc(F)cc1F", "answer label": "active"}
{"compound structure string": "O=C(NCCCNC(=O)OCc1ccc2c(Br)cc(Br)c(O)c2n1)OCc1ccc2c(Br)cc(Br)c(O)c2n1", "answer label": "active"}
{"compound structure string": "COc1ccc2nc3cc(Cl)ccc3c(Nc3ccc(O)c(CN4CCCC4)c3)c2c1", "answer label": "active"}

* * *

# Test system: IGROV1 ovarian
# assay comment: NCI-60 one-dose screen, 48 h
# condition set: 10 µM unless noted
About 83,000 compounds went through this panel and 20% of them were active in at least one assay; those are over-represented in the sample as a whole. Activity calls are given as the source filed them. The calls were made as follows: active = growth percent below 10; inactive = the rest.
Possible outcomes: t for active, f for inactive

{"compound structure string": "CC(C)CCSc1nc(N)nc2nc[nH]c12", "assayed target": "IGROV1 ovarian", "answer label": "f"}
{"compound structure string": "C=C(C)[C@@H]1CC[C@]2(c3ncc(C)o3)CC[C@]3(C)[C@H](CC[C@@H]4[C@@](C)(CCC#N)[C@H](C(=C)C)CC[C@]43C)[C@@H]12", "assayed target": "IGROV1 ovarian", "answer label": "t"}
{"compound structure string": "CCNC(=O)N1CCc2c(Cl)c3c(c(OC)c2[C@@H]1[C@H]1OCc2c1ccc(OC)c2OC)OCCO3", "assayed target": "IGROV1 ovarian", "answer label": "f"}

* * *

# Tested on: NCI/ADR-RES ovarian
# assay comment: NCI-60 one-dose screen, 48 h (100 = growth as untreated, 0 = no growth, -100 = all killed)
# condition set: 10 µM unless noted
About 83,000 compounds went through this panel and 20% of them were active in at least one assay; those are over-represented in the sample as a whole. Calls of active or inactive are those of the source. The calls were made as follows: active = growth percent below 10; inactive = the rest.
quantity: growth

{"compound": "CC(=O)OC[C@]12CC[C@@H]([C@@H](C)C(N)=O)[C@@H]1[C@H]1CC[C@@H]3[C@@]4(C)CC[C@H](OC(C)=O)C(C)(C)[C@@H]4CC[C@@]3(C)[C@]1(C)CC2", "assayed target": "NCI/ADR-RES ovarian", "quantity": "growth", "result": "-57.3% [100 µM] (active)"}
{"compound": "C=CCCC1(C)NC(=O)NC1=O (stereo not drawn)", "assayed target": "NCI/ADR-RES ovarian", "quantity": "growth", "result": "103% (inactive)"}
{"compound": "O=C1Cc2c(sc3c(F)cccc23)C(c2ccccc2[N+](=O)[O-])N1 (stereo not drawn)", "assayed target": "NCI/ADR-RES ovarian", "quantity": "growth", "result": "106% (inactive)"}

* * *

Recorded growth by entry
# Tested on: NCI/ADR-RES ovarian
# assay comment: NCI-60 one-dose screen, 48 h (100 = growth as untreated, 0 = no growth, -100 = all killed)
# condition set: 10 µM unless noted
The panel holds about 83,000 compounds, 20% with a hit somewhere; the sample as a whole holds those more often. The source made the active and inactive calls. The calls were made as follows: active = growth percent below 10; inactive = the rest.

{"compound": "O=C1/C(=C\\c2cn(CC(O)CN3CCCCC3)c3ccccc23)c2ccccc2N1c1c(Cl)cccc1Cl (stereo unspecified)", "growth": "-56% (active)"}
{"compound": "O=C(N/N=C1\\c2ccccc2-c2cccc(C(=O)O)c21)c1ccc(O)cc1", "growth": "99.8% (inactive)"}
{"compound": "C[C@@H]1C[C@H]2C(=O)O[C@@H](C)[C@H](NC(=O)[C@H](Cc3cc(F)cc(F)c3)NC(=O)Nc3ccc(Cl)cc3F)C(=O)N3C[C@H](O)C[C@H]3C(=O)N3CCN(C)C[C@H]3C(=O)N[C@@H](C)C(=O)N2C1", "growth": "105% (inactive)"}
{"compound": "C=C(C)[C@@H]1CC[C@]2(C(=O)NCCNCCNCCN)CC[C@]3(C)[C@H](CC[C@@H]4[C@@]5(C)CC[C@H](O)C(C)(C)[C@@H]5CC[C@]43C)[C@@H]12", "growth": "-13.1% [100 µM] (active)"}
{"compound": "C1=C[C@H]2O[C@@H]1c1ccc3[nH]ccc3c12", "growth": "63.7% (inactive)"}
{"compound": "COc1ccccc1S(=O)Nc1ccccc1 (stereo unspecified)", "growth": "105% (inactive)"}
{"compound": "COc1ccc(-c2ccc(NNC(=O)c3ccc(F)cc3)nn2)cc1OC", "growth": "65.4% (inactive)"}
{"compound": "C=C(C)[C@@H]1CC[C@]2(C(=O)OC)CC[C@]3(C)[C@H](CC[C@@H]4[C@@]5(C)CC/C(=N\\OCCC(=NCCC#N)NOCCC#N)C(C)(C)[C@@H]5CC[C@]43C)[C@@H]12", "growth": "17.1% [100 µM] (inactive)"}
{"compound": "CC[C@@H]1NC(=O)[C@@H]2CCCCN2C(=O)[C@@H]2CCCN2C(=O)[C@@H](NC(=O)[C@H](Cc2cc(F)cc(F)c2)NC(=O)Nc2ccc(C3CC3)cc2F)[C@H](C)OC(=O)[C@@H]2C[C@@H](C)CN2C1=O", "growth": "14% (inactive)"}
{"compound": "CSc1cccc([N+](=O)[O-])c1", "growth": "109% (inactive)"}
{"compound": "c1coc2occoc=2o1", "growth": "107% (inactive)"}

* * *

# Tested on: NCI/ADR-RES ovarian
# assay comment: NCI-60 one-dose screen, 48 h
# condition set: 10 µM unless noted
The panel holds about 83,000 compounds, 20% with a hit somewhere; the sample as a whole holds those more often. The source made the active and inactive calls. How the source made its calls: active means growth percent below 10; inactive means the rest.
Labels: y (active), n (inactive)

{"compound": "CSc1nc2c(c(=O)n1C)C1(C(=O)N(Cc3ccccc3)c3ccccc31)c1c(nc(SC)n(C)c1=O)N2", "assayed target": "NCI/ADR-RES ovarian", "answer label": "n"}
{"compound": "Cc1ccc(-c2cn(C/C=C3\\C=CN(S(=O)(=O)c4ccccc4)CC3)nn2)cc1", "assayed target": "NCI/ADR-RES ovarian", "answer label": "n"}
{"compound": "Cn1cc(-c2noc(-c3cn(C)c4ncc(F)cc34)n2)c2cc(Cl)ccc21", "assayed target": "NCI/ADR-RES ovarian", "answer label": "n"}
{"compound": "CC(C)C1=NOC(=O)C1=Cc1cn(-c2cccnc2)nc1-c1ccccc1", "assayed target": "NCI/ADR-RES ovarian", "answer label": "n"}
{"compound": "CCc1ccc(-c2ccc(COc3ccc(CC4SC(=O)NC4=O)cc3)cc2)cc1 (stereo unspecified)", "assayed target": "NCI/ADR-RES ovarian", "answer label": "n"}
{"compound": "C=C(C)[C@@H]1CC[C@]2(C(=O)NCCNCCNCCN)CC[C@]3(C)[C@H](CC[C@@H]4[C@@]5(C)CCC(=O)C(C)(C)[C@@H]5CC[C@]43C)[C@@H]12", "assayed target": "NCI/ADR-RES ovarian", "answer label": "y"}
